Assay: chemical genetic growth profiling, strain panel (AID 1159580);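 also: tested at 20 µM; growth read once vehicle control cultures reached saturation at 30 °C; lower values mean less growth of the strain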
Settings: S. cerevisiae deletion strains, growth OD, locus YNL067W, strain RPL9B
In all, about 5,500 compounds went through this assay and about 2,000 (36%) were called active. Not shown: some 18% with an inconclusive outcome. Rule as the data show it: active = normalized growth mostly below about 0.91 (no sharp cut-off); inconclusive = no clear call, values can overlap the other calls; inactive = mostly above about 0.92. This is one part of the list.
Hi! Could you answer with just one of these? active, inactive

Lookup: Lab log entry: "CC[C@@]1(O)C[C@H](O)c2c(cc3c(c2O)C(=O)c2c(O)ccc(O)c2C3=O)[C@H]1C(=O)OC" — outcome as called in the assay?
Found: active

Lookup: Lab log entry: C=C1C2CC[C@@]3(C)[C@H](c4ccoc4)OC(=O)C[C@]13O[C@H]1CC(=O)C(C)(C)[C@H](C(OC(C)=O)C(=O)OC)[C@@]21C (stereo partly drawn) — outcome as called in the assay?
Found: inactive

Lookup: Lab log entry: "COc1ccccc1-c1coc2cc(O)ccc2c1=O" — outcome as called in the assay?
Found: inactive

Lookup: Lab log entry: "COc1ccc([C@H]2Oc3c(I)c(OC)cc(OC)c3C[C@@H]2O)cc1OC" — outcome as called in the assay?
Found: inactive

Lookup: Lab log entry: "COc1ccc(-c2coc3cc(O)ccc3c2=O)c(OC)c1" — outcome as called in the assay?
Found: inactive

Lookup: Lab log entry: Oc1cc(O)c2c(c1)OC(c1cc(O)c(O)c(O)c1)C(O)C2c1c(O)cc(O)c2c1OC(c1cc(O)c(O)c(O)c1)C(O)C2c1c(O)cc(O)c2c1OC(c1cc(O)c(O)c(O)c1)C(O)C2 (stereo not drawn) — outcome as called in the assay?
Found: inactive

Lookup: Lab log entry: "O=C1c2ccc(O)cc2O[C@H](c2cc(O)c(O)c(O)c2)[C@H]1O" — outcome as called in the assay?
Found: inactive

Lookup: Lab log entry: "CC[C@@]1(O)C[C@H](O[C@H]2C[C@H](N(C)C)[C@H](O)[C@H](C)O2)c2c(cc3c(c2O)C(=O)c2c(O)cccc2C3=O)[C@H]1C(=O)OC" — outcome as called in the assay?
Found: active

All values here come from PubChem BioAssay AID1159580.
